IC50 reference
# studySystem: Tyrosine-protein phosphatase non-receptor type 1 (Homo sapiens, UniProt P18031)
# Sequence (P18031 whole entry): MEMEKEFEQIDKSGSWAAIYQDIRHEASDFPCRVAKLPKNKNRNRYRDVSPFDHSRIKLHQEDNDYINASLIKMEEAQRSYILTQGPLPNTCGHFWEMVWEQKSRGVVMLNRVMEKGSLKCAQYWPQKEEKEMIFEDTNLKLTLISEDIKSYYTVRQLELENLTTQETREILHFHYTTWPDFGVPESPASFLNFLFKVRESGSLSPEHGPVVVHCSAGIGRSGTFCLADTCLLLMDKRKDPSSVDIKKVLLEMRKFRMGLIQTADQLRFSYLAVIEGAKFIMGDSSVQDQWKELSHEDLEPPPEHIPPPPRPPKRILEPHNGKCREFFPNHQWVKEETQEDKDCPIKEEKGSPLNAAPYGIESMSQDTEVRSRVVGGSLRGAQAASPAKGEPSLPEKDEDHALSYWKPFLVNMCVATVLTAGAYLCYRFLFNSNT
# assayDetails: In vitro inhibitory activity against human recombinant protein tyrosine phosphatase 1b (PTP1B)
propertyLabel: IC50 (nM)

* Cc1ccc2oc(Cc3ccccc3)c(-c3ccc(-c4ccc(O[C@H](Cc5ccccc5)C(=O)O)cc4)cc3)c2c1 | 410
* O=C(O)[C@H](CCc1ccccc1)Oc1ccc(-c2ccc(-c3c(Cc4ccccc4)oc4ccccc34)cc2)cc1 | 220
* CCCCc1oc2ccccc2c1C(=O)c1ccc2c(Br)c(OC(Cc3ccccc3)C(=O)O)ccc2c1 (stereo not given) | 1200
* COc1cccc(-c2cc(-c3ccc(-c4c(Cc5ccccc5)sc5ccccc45)cc3)ccc2OCC(=O)O)c1OC | 71
* Oc1ccc(Cc2sc3ccccc3c2-c2ccc(-c3ccc(O)cc3)cc2)cc1 | 1080

---

# studySystem: Tyrosine-protein phosphatase non-receptor type 1 (Homo sapiens)
# assayDetails: In vitro inhibitory activity against human recombinant protein tyrosine phosphatase 1b (PTP1B)
IC50 reference
propertyLabel: IC50 (nM)

• O=C(O)COc1ccc(-c2ccc(-c3c(Cc4ccccc4)sc4ccccc34)cc2)cc1-c1ccccc1 = 100
• CCCCc1oc2ccccc2c1Cc1ccc2c(Br)c(OCC(=O)O)ccc2c1 = 1400
• COC(=O)C(CCNC(=O)c1ccccc1C(=O)O)Oc1c(Br)cc(-c2ccc(-c3c(Cc4ccccc4)sc4ccccc34)cc2)cc1Br (configuration not stated) = 54
• COc1ccc(-c2cc(-c3ccc(-c4c(Cc5ccccc5)sc5ccccc45)cc3)ccc2O[C@H](Cc2ccccc2)C(=O)O)cc1 = 53
• O=C(O)[C@H](CCN1C(=O)c2ccccc2C1=O)Oc1ccc(-c2ccc(-c3c(Cc4ccccc4)oc4ccccc34)cc2)cc1 = 340
• O=C(O)c1ccc(COc2ccc(-c3ccc(-c4c(Cc5ccccc5)oc5ccccc45)cc3)cc2)cc1 = 360
• O=C(O)[C@@H](Cc1ccccc1)Oc1ccc(-c2ccc(-c3c(C(O)c4ccccc4)oc4ccccc34)cc2)cc1 (some centres not stated) = 110
• CCCCc1oc2ccccc2c1C(=O)c1ccc2c(Br)c(OCn3cnnn3)ccc2c1 = 1100
• CCCCc1oc2ccccc2c1Cc1ccc2c(I)c(OC(Cc3ccccc3)C(=O)O)ccc2c1 (configuration not stated) = 320
• O=C(O)[C@H](Cc1ccccc1)Oc1ccc(-c2ccc(-c3c(Cc4ccccc4)oc4ccc(F)cc34)cc2)cc1 = 130
• O=C(O)[C@@H](Cc1ccccc1)Oc1ccc(-c2ccc(-c3c(Cc4ccc(O)cc4O)sc4ccccc34)cc2)cc1 = 120
• O=C(O)CCCOc1ccc(-c2ccc(-c3c(Cc4ccccc4)sc4ccccc34)cc2)cc1Br = 170
• CCCCc1oc2ccccc2c1Cc1ccc2c(Br)c(OCn3cnnn3)ccc2c1 = 700
• O=C(O)c1ccccc1C(=O)Nc1cc(-c2ccc(-c3c(Cc4ccccc4)oc4ccccc34)cc2)ccc1O = 160
• O=C(O)[C@@H](Cc1ccccc1)Oc1ccc(-c2ccc(-c3oc4ccccc4c3Cc3ccccc3)cc2)cc1 = 350
• O=C(O)CNc1cc(-c2ccc(-c3c(Cc4ccccc4)oc4ccccc34)cc2)ccc1OCCc1ccccc1 = 82
• O=C(O)[C@H](Cc1ccccc1)Oc1ccc(-c2ccc(-c3c(Cc4ccccc4)oc4ccccc34)cc2)cc1C1CCCC1 = 55

---

# studySystem: Dual specificity protein phosphatase 3 (Homo sapiens, UniProt P51452)
# Sequence (P51452 whole entry): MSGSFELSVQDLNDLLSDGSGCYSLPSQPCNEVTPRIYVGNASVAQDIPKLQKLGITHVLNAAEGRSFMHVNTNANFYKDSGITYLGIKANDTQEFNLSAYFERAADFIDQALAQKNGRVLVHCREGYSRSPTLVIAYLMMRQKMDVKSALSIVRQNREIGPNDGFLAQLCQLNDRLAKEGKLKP
propertyLabel: IC50 (µM)

- O=C(O)[C@H](Cc1ccccc1)Oc1ccc(-c2ccc(-c3c(Cc4ccccc4)oc4ccccc34)cc2)cc1: 15.9
